Can you tell me % Phosphatase Activity (compared to DMSO) PRL-1 for the items I'm about to list?
biological target: recombinant PRL-1 (Homo sapiens); construct: 6xHis (N, cleaved yes); made in house; host or cells: E. coli One Shot BL21 Star; assay: In vitro phosphatase assay (DiFMUP hydrolysis), PRL-1; type: biochemical; conditions: FDA-approved drug screen; compared to DMSO; also: test concentration or dose not given here
Structures can show the parent of a compound that is named as a salt.
Numbers only here, please. The scale is %.

Task item: Give the measured % Phosphatase Activity (compared to DMSO) PRL-1 of Nc1c(CC(=O)[O-])cccc1C(=O)c1ccccc1.O.[Na+] [Amfenac Sodium Monohydrate] .
Reply: 89

Task item: Repeat with CCCCCCCCc1ccc(CCC(N)(CO)CO)cc1.Cl [Fingolimod (FTY720) HCl]
Reply: 104

Task item: How about this compound: `Cn1c(=O)c2[nH]cnc2n(C)c1=O`
Reply: 97

Task item: Another compound to check: `C[C@]12CC[C@@H]3c4ccc(O)cc4CC[C@H]3[C@@H]1CC[C@@H]2O`
Reply: 92

Task item: Same thing, different compound: C[C@H]1c2cccc(O)c2C(=O)C2=C(O)[C@]3(O)C(=O)C(C(N)=O)=C(O)[C@@H](N(C)C)[C@@H]3[C@@H](O)[C@@H]21 [Doxycycline HCl]
Reply: 83

Task item: What about `C[C@@H]1C/C=C/C=C/C=C/C=C/[C@H](O[C@@H]2O[C@H](C)[C@@H](O)[C@H](N)[C@@H]2O)C[C@@H]2O[C@](O)(C[C@@H](O)C[C@H]3O[C@@H]3/C=C/C(=O)O1)C[C@H](O)[C@H]2C(=O)O` ?
Reply: 96

Task item: Quick one: CC(C)OC(=O)C(C)(C)Oc1ccc(C(=O)c2ccc(Cl)cc2)cc1 [Fenofibrate]
Reply: 88

---

Target: recombinant PRL-1 (Homo sapiens)
Construct: 6xHis (N, cleaved yes); made in house; host or cells: E. coli One Shot BL21 Star
Sequence (Q93096 1-173): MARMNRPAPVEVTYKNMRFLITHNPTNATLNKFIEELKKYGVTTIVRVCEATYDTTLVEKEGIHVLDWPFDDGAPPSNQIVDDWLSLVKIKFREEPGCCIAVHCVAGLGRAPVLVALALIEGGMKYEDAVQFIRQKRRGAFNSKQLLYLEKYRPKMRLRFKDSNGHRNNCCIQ
Experiment: In vitro phosphatase assay (DiFMUP hydrolysis), PRL-1; also: test concentration or dose not given here
Assay type: biochemical
Details: FDA-approved drug screen; compared to DMSO
Would you kindly list % Phosphatase Activity (compared to DMSO) PRL-1 for each of these molecules?
Write down the numeric answer in % and omit the unit.

Task item: Entry CC(=O)O[C@H]1Cc2ccccc2N(C(N)=O)c2ccccc21 [Eslicarbazepine Acetate] : reported % Phosphatase Activity (compared to DMSO) PRL-1 = ?
Reply: 94

Task item: Can you check `COc1ccc2c(c1)C(=O)N(CCc1ccc(S(=O)(=O)NC(=O)NC3CCCCC3)cc1)C(=O)C2(C)C` next?
Reply: 99

Task item: Note, next up: [I-].[K+] [Potassium Iodide]
Reply: 94

Task item: Same for `CCCNS(=O)(=O)Nc1ncnc(OCCOc2ncc(Br)cn2)c1-c1ccc(Br)cc1`
Reply: 93

Task item: What do you have for `Nc1nc(O)c2ncn(COC(CO)CO)c2n1` ?
Reply: 90

Task item: Same question for `CO/N=C(\C(=O)N[C@@H]1C(=O)N2C(C(=O)OCOC(=O)C(C)(C)C)=C(/C=C\c3scnc3C)CS[C@H]12)c1csc(N)n1` please.
Reply: 88

Task item: Same again, this time with `C[C@]1(O)C[C@@H](c2nc(-c3ccc4ccc(-c5ccccc5)nc4c3)c3c(N)nccn32)C1`
Reply: 79

Task item: What do you have for `N#CC[C@H](C1CCCC1)n1cc(-c2ncnc3[nH]ccc23)cn1` ?
Reply: 116

---

Biological target: recombinant PRL-1 (Homo sapiens)
Construct: 6xHis (N, cleaved yes); made in house; host or cells: E. coli One Shot BL21 Star
Sequence (Q93096 1-173): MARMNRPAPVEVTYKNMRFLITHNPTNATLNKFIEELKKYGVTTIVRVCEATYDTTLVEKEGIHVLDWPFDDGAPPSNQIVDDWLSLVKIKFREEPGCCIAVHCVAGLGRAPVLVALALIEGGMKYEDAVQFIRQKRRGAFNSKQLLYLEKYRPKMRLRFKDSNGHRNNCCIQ
Test: In vitro phosphatase assay (DiFMUP hydrolysis), PRL-1; also: test concentration or dose not given here
Format: biochemical
Conditions: FDA-approved drug screen; activity compared to DMSO
Where a name gives a salt, the structure may show the parent alone.
Assign % Phosphatase Activity (compared to DMSO) PRL-1 to each entry below.
Could you give me the number in %? Just the number is fine.

Task item: Item Cc1cn([C@@H]2C[C@@H](O)[C@H](CO)O2)c(=O)[nH]c1=O [Telbivudine] has what recorded % Phosphatase Activity (compared to DMSO) PRL-1?
Reply: 106

Task item: And CC(C(=O)O)c1ccc(C(=O)c2cccs2)cc1 (stereo not drawn) [Suprofen] ?
Reply: 93

Task item: How about this compound: CC(C)(C)NC[C@H](O)COc1nsnc1N1CCOCC1 [Timolol Maleate]
Reply: 107

Task item: Check Cn1c(=O)c2[nH]cnc2n(C)c1=O [Theophylline] too.
Reply: 105

Task item: Now try c1ccc(CC2=NCCN2)cc1 [Tolazoline HCl] .
Reply: 100

Task item: Quick one: CCC1=C[C@@H]2CN(C1)Cc1c([nH]c3ccccc13)[C@@](C(=O)OC)(c1cc3c(cc1OC)N(C)[C@H]1[C@@](O)(C(=O)OC)[C@H](OC(C)=O)[C@]4(CC)C=CCN5CC[C@]31[C@@H]54)C2 [Vinorelbine Tartrate]
Reply: 89

Task item: // query: Cc1ccc(S(=O)(=O)NC(=O)NN2CCCCCC2)cc1 [Tolazamide]
Reply: 81

Task item: Same thing, different compound: CN(N=O)C(=O)N[C@H]1C(O)O[C@H](CO)[C@@H](O)[C@@H]1O (mixture of isomers) [Streptozotocin (STZ)]
Reply: 96

Task item: Also, CO[C@H]1C[C@@H]2CC[C@@H](C)[C@@](O)(O2)C(=O)C(=O)N2CCCC[C@H]2C(=O)O[C@H]([C@H](C)C[C@@H]2CC[C@@H](OC(=O)C(C)(CO)CO)[C@H](OC)C2)CC(=O)[C@H](C)/C=C(\C)[C@@H](O)[C@@H](OC)C(=O)[C@H](C)C[C@H](C)/C=C/C=C/C=C/1C [Temsirolimus (CCI-779, NSC 683864)] please.
Reply: 96

Task item: Thanks! And Nc1nc(N)c2nc(-c3ccccc3)c(N)nc2n1 [Triamterene] ?
Reply: 7090

Task item: Now consider C=C1CC[C@H](O)C/C1=C/C=C1\CCC[C@]2(C)[C@@H]([C@H](C)CCCC(C)C)CC[C@@H]12 [Vitamin D3] .
Reply: 85

Task item: // same read-out, input: CCCc1nc(C)c2c(=O)[nH]c(-c3cc(S(=O)(=O)N4CCN(CC)CC4)ccc3OCC)nn12.Cl.O.O.O [Vardenafil HCl Trihydrate]
Reply: 98

Task item: Would you mind doing CC(C)[C@H](N)C(=O)OCC(CO)OCn1cnc2c(=O)nc(N)[nH]c21 (stereo partly drawn) [Valganciclovir HCl] as well?
Reply: 103

Task item: Please do the same for CCOC(=O)[C@H](CCc1ccccc1)N[C@H]1CS[C@H](c2cccs2)CN(CC(=O)O)C1=O [Temocapril HCl] as well.
Reply: 91

Task item: What do you have for N#C[C@@H]1CCCN1C(=O)CNC12CC3CC(CC(O)(C3)C1)C2 [Vildagliptin (LAF-237)] ?
Reply: 99

Task item: Try CC(=O)Nc1cccc(-n2c(=O)n(C3CC3)c(=O)c3c(Nc4ccc(I)cc4F)n(C)c(=O)c(C)c32)c1 [Trametinib (GSK1120212)] next.
Reply: 88

Task item: Try the compound Cc1noc(NS(=O)(=O)c2ccc(N)cc2)c1C [Sulfisoxazole]
Reply: 88

Task item: What do you have for Cc1cnc(Nc2ccc(OCCN3CCCC3)cc2)nc1Nc1cccc(S(=O)(=O)NC(C)(C)C)c1 [TG101348 (SAR302503)] ?
Reply: 97

Task item: Subsequent entry: CNC(=O)c1cc(Oc2ccc(NC(=O)Nc3ccc(Cl)c(C(F)(F)F)c3)cc2)ccn1 [Sorafenib]
Reply: 91

Task item: Now give it for CCCSc1nc(N[C@@H]2C[C@H]2c2ccc(F)c(F)c2)c2nnn([C@@H]3C[C@H](OCCO)[C@@H](O)[C@H]3O)c2n1 [Ticagrelor] too.
Reply: 97

Task item: COc1ccc(/C=C/C(=O)Nc2ccccc2C(=O)O)cc1OC [Tranilast] ?
Reply: 88

Task item: Also O=c1oc2cc(O)ccc2s1 [Tioxolone] ?
Reply: 102

Task item: Another compound: CC(C)OC(=O)OCOP(=O)(CO[C@H](C)Cn1cnc2c(N)ncnc21)OCOC(=O)OC(C)C [Tenofovir Disoproxil Fumarate]
Reply: 95

Task item: Now consider Oc1cc(Cl)ccc1Oc1ccc(Cl)cc1Cl [Triclosan] and answer again.
Reply: 100

Task item: What do we get for COc1nc(C)cnc1NS(=O)(=O)c1cccnc1-c1ccc(-c2nnco2)cc1 [Zibotentan (ZD4054)] ?
Reply: 99

Task item: Now consider CCC[C@H](NC(=O)[C@@H]1[C@H]2CCC[C@H]2CN1C(=O)[C@@H](NC(=O)[C@@H](NC(=O)c1cnccn1)C1CCCCC1)C(C)(C)C)C(=O)C(=O)NC1CC1 [Telaprevir (VX-950)] and answer again.
Reply: 95

Task item: Record: CC(=O)OCC(COC(C)=O)OC(C)=O [Triacetin]
Reply: 93

Task item: Try the compound CN1C(C(=O)Nc2ccccn2)=C(O)c2sccc2S1(=O)=O [Tenoxicam]
Reply: 92

Task item: # repeat for COc1cc2/c(=N/c3ccc(Br)cc3F)nc[nH]c2cc1OCC1CCN(C)CC1 [Vandetanib (ZD6474)]
Reply: 96

Task item: Would you mind doing C[C@H](Cn1cnc2c(N)ncnc21)OCP(=O)(O)O [Tenofovir] as well?
Reply: 103
